For each entry below, report its pIC50 value.
# measured target: Substance-K receptor (Homo sapiens, UniProt P21452)
# Sequence (P21452 whole entry): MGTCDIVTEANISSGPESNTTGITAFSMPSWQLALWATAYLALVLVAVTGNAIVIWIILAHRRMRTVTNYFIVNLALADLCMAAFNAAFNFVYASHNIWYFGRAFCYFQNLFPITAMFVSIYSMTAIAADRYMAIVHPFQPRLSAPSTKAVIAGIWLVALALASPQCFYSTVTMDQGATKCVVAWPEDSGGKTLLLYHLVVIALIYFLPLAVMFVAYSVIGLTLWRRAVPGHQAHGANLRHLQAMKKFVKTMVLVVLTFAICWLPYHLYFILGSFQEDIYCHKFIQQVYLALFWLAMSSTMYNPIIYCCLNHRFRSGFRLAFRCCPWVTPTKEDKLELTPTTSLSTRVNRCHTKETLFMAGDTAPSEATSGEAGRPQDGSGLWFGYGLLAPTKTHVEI
# experimental protocol: Inhibition of cloned human NK2 (Neurokinin 2) receptor, stably expressed in chinese hamster ovary (CHO) cells was determined
Give bare numbers, as −log10 of the molar value.

>  <cpd smiles>
CCN(Cc1ccccc1)C(=O)[C@H](Cc1c[nH]c2ccccc12)NC(=O)N1CCC2(CCc3ccccc32)CC1

>  <observed measurement>
6.86

$$$$
>  <cpd smiles>
CSN1CC2(CCN(C(=O)N[C@@H](Cc3c[nH]c4ccccc34)C(=O)N(C)Cc3ccccc3)CC2)c2ccccc21

>  <observed measurement>
7.62

$$$$

Measured pIC50 (Substance-K receptor (Homo sapiens, UniProt P21452)), entry `CSN1CC2(CCN(C(=O)N[C@@H](COCc3ccccc3)C(=O)N(C)Cc3ccccc3)CC2)c2ccccc21` : 6.59
